read-out: Interferon-gamma inducible Protein 10 (IP10), CXCL10 (gene 3627); test: BSK_BE3C_IP10: BioMAP Diversity Plus: BE3C Assay for Interferon-gamma inducible Protein 10 (IP10) Biomarker Activity (AID 2283034); settings: primary human bronchial epithelial cells; actives raise or lower the signal
Active and inactive are the calls of the source. Rule for the calls: active = hit-call score of the fitted dose curve at least 0.9, where 1 is the maximum; inactive = score below 0.9.
readout_type: AC50

molecule	AC50
Cc1cccc(N)c1N	inactive
CC(C)(OOC(C)(C)c1ccccc1)c1ccccc1	inactive
c1ccc(NNc2ccccc2)cc1	inactive
c1ccc(N=Nc2ccccc2)cc1	inactive
c1ccc(C2CO2)cc1 (stereo unspecified)	inactive

Task: Note down AC50 recorded for Oc1ccc2ccc3cccc4ccc1c2c34
Output: 31.3 µM (active)

Task: Note down AC50 recorded for O=[N+]([O-])c1ccc(Oc2ccc(Cl)cc2Cl)cc1
Output: inactive

Task: Note down AC50 recorded for O=Cc1ccco1
Output: inactive

Task: Note down AC50 recorded for CCOC(=O)[C@]1(c2ccccc2)Oc2ccccc2[C@@H]1N
Output: inactive

Task: Note down AC50 recorded for Cc1ccc(N=C=O)cc1N=C=O
Output: 20 µM (active)

Task: Note down AC50 recorded for [O-][Cl+]O
Output: inactive

###

Read-out: Monokine induced gamma interferon (MIG), CXCL9 (gene 4283)
Experiment: BSK_hDFCGF_MIG: BioMAP Diversity Plus: hDFCGF Assay for Monokine induced gamma interferon (MIG) Biomarker Activity (AID 2283063)
Details: primary human foreskin fibroblasts; actives raise or lower the signal
Description: BSK_hDFCGF is a cell-based, multiplexed-readout assay that uses foreskin fibroblast, a human skin primary cell, with measurements taken at 24 hours after chemical dosing in a 96-well plate.BSK_hDFCGF_MIG is an assay component measured in the BSK_hDFCGF assay. It measures MIG antibody related to regulation of gene expression using ELISA technology.Data from the assay component BSK_hDFCGF_MIG was analyzed into 1 assay endpoint. […]
Calls of active or inactive are those of the source. The calls were made as follows: active = hit-call score of the fitted dose curve at least 0.9, where 1 is the maximum; inactive = score below 0.9.
Outcome field: choose from 1.0 = active, 0.0 = inactive

Consider the following illustrative entries.
compound	answer_label
COP(=S)(OC)SCN1C(=O)c2ccccc2C1=O	0.0
CC(C)(C)OOC(=O)c1ccccc1	1.0
Nc1cc(Cl)cc(C(=O)O)c1Cl	0.0
N#CC(Br)(Br)C(N)=O	0.0
CCN(CC)CCO	0.0

Task: Please let me know the test result on file for C1=Cc2cccc3cccc1c23 .
Output: 0.0

Task: Please let me know the test result on file for OCCCBr .
Output: 0.0

Task: Please let me know the test result on file for CCCCOC(=O)c1ccccc1C(=O)OCc1ccccc1 .
Output: 0.0

Task: Please let me know the test result on file for CCCCC(CC)COC(=O)c1ccc(C(=O)OCC(CC)CCCC)c(C(=O)OCC(CC)CCCC)c1 (centres undefined) .
Output: 0.0

Task: Please let me know the test result on file for CC(C)(OOC(C)(C)c1ccccc1)c1ccccc1 .
Output: 1.0

###

read-out: Insulin-like growth factor-binding protein 1 (IGFBP1), IGFBP1 (gene 3484); experiment: LTEA_HepaRG_IGFBP1: Life Technologies and Expression Analysis (LTEA) Assay for Insulin-like growth factor-binding protein 1 (IGFBP1) using HepaRG (AID 2283508); conditions: mRNA level, 48 h; actives raise or lower the signal
Active and inactive are the calls of the source. Rule for the calls: active = hit-call score of the fitted dose curve at least 0.9, where 1 is the maximum; inactive = score below 0.9.
Outcome field: choose from Yes for active, No for inactive

Task: Please let me know the test result on file for Cc1ccc([N+](=O)[O-])cc1 .
Output: No

Task: Please let me know the test result on file for CCC(C)c1ccc(O)cc1 (stereo not drawn) .
Output: No

Task: Please let me know the test result on file for C=CCc1ccc2c(c1)OCO2 .
Output: No

Task: Please let me know the test result on file for Clc1ccc(Cl)c(Cl)c1 .
Output: No

Task: Please let me know the test result on file for Cn1cc(-c2ccccc2)c(=O)c(-c2cccc(C(F)(F)F)c2)c1 .
Output: Yes

Task: Please let me know the test result on file for CCCCCCCCn1sccc1=O .
Output: No

Task: Please let me know the test result on file for Clc1ccc(C(c2ccc(Cl)cc2)C(Cl)(Cl)Cl)cc1 .
Output: No

Task: Please let me know the test result on file for CCOc1cccc(C2(N3CCN(c4ccccc4)CC3)CCC(C)CC2)c1 (stereo not drawn) .
Output: No

Task: Please let me know the test result on file for Cc1ccc(N=C=O)cc1N=C=O .
Output: Yes

Task: Please let me know the test result on file for c1ccc(N=Nc2ccccc2)cc1 .
Output: No

Task: Please let me know the test result on file for CCC[CH2][Sn]([Cl])([CH2]CCC)[CH2]CCC .
Output: Yes

Task: Please let me know the test result on file for [O-][Cl+]O .
Output: No

Task: Please let me know the test result on file for CC(C)(OOC(C)(C)c1ccccc1)c1ccccc1 .
Output: No

Task: Please let me know the test result on file for O=P(OCCCl)(OCCCl)OCCCl .
Output: No

Task: Please let me know the test result on file for Cc1cccc(N)c1N .
Output: Yes

Task: Please let me know the test result on file for Brc1ccc(Oc2ccccc2)cc1 .
Output: No

Task: Please let me know the test result on file for CCCCCOC(=O)c1ccccc1C(=O)OCCCCC .
Output: No

Task: Please let me know the test result on file for O=C1CCCO1 .
Output: No

Task: Please let me know the test result on file for c1ccc2c(c1)-c1cccc3cccc-2c13 .
Output: No

Task: Please let me know the test result on file for O=[N+]([O-])c1ccc(Oc2ccc(Cl)cc2Cl)cc1 .
Output: Yes
